Molecular target: EGFR kinase activity in H1650-ER1, H1650-ER2, H1650-ER4 cell lysates (Homo sapiens, UniProt P00533, DEL746-750)
Quantity name: IC50

>  <Substance smiles>
C[C@@H](Nc1ncnc2[nH]c(-c3ccc(O)cc3)cc12)c1ccccc1

>  <Result>
> 10 µM

$$$$

###

Test system: erlotinib-resistant H1650 clones
Experiment: cells
Conditions: Homo sapiens, NCI-H1650, 48 h, read-out: IC50, cell proliferation/viability
Quantity name: IC50

>  <Substance smiles>
C#Cc1cccc(Nc2ncnc3cc(OCCOC)c(OCCOC)cc23)c1

>  <Assayed system>
erlotinib-resistant H1650 clones

>  <Result>
> 20 µM

$$$$
